B1: DLC1 (parent)
chain: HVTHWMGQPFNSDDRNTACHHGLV

Variants of: B1
Assay: protein stability index of a GFP-peptide fusion (GPS, HEK-293T) (PSI 1-6); higher = more stable;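 note: lentivirally expressed fusions sorted by FACS into six bins by GFP to DsRed ratio, PSI derived from sequencing read proportions per bin multiplied by bin number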
Conditions: c terminus: a fixed tail appended
measure: protein stability index
Please respond with just the number, no unit label.

Give the reported value of protein stability index for this record: H4D
2.49

Give the reported value of protein stability index for this record: C19K
2.2

Give the reported value of protein stability index for this record: V24C
2.16

Give the reported value of protein stability index for this record: C19A
2.5

Give the reported value of protein stability index for this record: R15G
1.94

Give the reported value of protein stability index for this record: T17A
1.99

Give the reported value of protein stability index for this record: W5E
4.26

Give the reported value of protein stability index for this record: M6T
2.12

Give the reported value of protein stability index for this record: N11D
2.58

Give the reported value of protein stability index for this record: T3P
3.11

Give the reported value of protein stability index for this record: Q8L
1.22

Give the reported value of protein stability index for this record: D14H
2.66

Give the reported value of protein stability index for this record: W5L
2.53

Give the reported value of protein stability index for this record: Q8E
2.43
